Reference for the values: PubChem BioAssay (NCATS)

# experiment.summary: Primary fluorescence-based thiol-reactive (MSTI) qHTS assay for identification of artifact compounds. (AID 1845221); also: nearly all actives have a fitted effect of over 65% in size
# conditions: MSTI thiol-reactivity probe, 1 h; series mostly up to 53.8 µM
Inconclusive results are not listed. Activity calls are given as the source filed them. Calls follow the shape of the dose curve; as a rule, active = well fitted inhibition curve with a large enough effect; inconclusive = small, poorly fitted or top-dose-only effect; inactive = no such curve, though single readings can be large or run the other way.
One label from this list, please: active, inactive

The examples below pair each entry with its known result.
Prompt: Hi, do you know how C[C@@H]1O[C@@H](O[C@H]2[C@@H]3C=CO[C@@H](O[C@@H]4O[C@H](CO)[C@@H](O)[C@H](O)[C@H]4O)[C@@H]3[C@@]3(CO)O[C@@H]23)[C@H](OC(=O)/C=C/c2ccc(O)c(O)c2)[C@H](O)[C@H]1O came out in this test?
Response: active

Prompt: Which outcome was entered for the compound Cn1nnc(-c2ccc(-c3ccc(N4C[C@H](CO)OC4=O)cc3F)cn2)n1 in this test?
Response: inactive

Prompt: Please state the recorded outcome for this compound: CN1CCc2nc(C(=O)N[C@@H]3C[C@@H](C(=O)N(C)C)CC[C@@H]3NC(=O)C(=O)Nc3ccc(Cl)cn3)sc2C1
Response: inactive

Continuing:
Prompt: Look up the recorded call for CC(=O)OC[C@H]1O[C@H](O[C@]2(CO)O[C@H](CO)[C@@H](OC(=O)/C=C/c3ccccc3)[C@@H]2O)[C@H](O)[C@@H](O)[C@@H]1O in this test.
Response: active
